Provide the recorded viability, T/C for the entries that follow.
Test system: NCI/ADR-RES complex spheroid viability
Test protocol: Anticancer human tumor NCI/ADR-RES cell line growth inhibition;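 note: spheroids exposed to compounds for 7 days; 100% = DMSO vehicle treated spheroids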
Condition notes: second compound 3.16 µM; first compound 0.949 µM; active compounds read low
# unit: % | format: bare number

// recorded viability, T/C for NS(=O)(=O)OCC1CC(n2ccc3c(NC4CCc5ccccc54)ncnc32)CC1O (stereo not drawn) + NC1CCC(NC2CC2c2ccccc2)CC1 : 40.4

// recorded viability, T/C for COc1cc(C2c3cc4c(cc3C(OC3OC5COC(C)OC5C(O)C3O)C3COC(=O)C23)OCO4)cc(OC)c1O (stereo not drawn) + NC1CC1c1ccc(-c2cccc(O)c2)cc1 : 94.2

// recorded viability, T/C for Nc1ccccc1NC(=O)c1ccc(CNC(=O)OCc2cccnc2)cc1 + NC1CC1c1ccc(-c2cccc(O)c2)cc1 : 49.4

----------
Test system: NCI/ADR-RES complex spheroid viability
Test protocol: Anticancer human tumor NCI/ADR-RES cell line growth inhibition;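 note: spheroids exposed to compounds for 7 days; 100% = DMSO vehicle treated spheroids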
Condition notes: second compound 3.16 µM; first compound 3.16 µM; active compounds read low
Endpoint name: viability, T/C (%)
# unit: % | format: bare number

// recorded viability, T/C for CC(C)c1c(-c2ccccc2)nc2c(C#N)c[nH]n2c1=O + NC1CCC(NC2CC2c2ccccc2)CC1 : 105

// recorded viability, T/C for CC(C)c1c(-c2ccccc2)nc2c(C#N)c[nH]n2c1=O + NC1CC1c1ccc(-c2cccc(O)c2)cc1 : 97.6

// recorded viability, T/C for CC1COCCN1c1cc(C2(S(C)(=N)=O)CC2)nc(-c2ccnc3[nH]ccc23)n1 (stereo not given) + NC1CC1c1ccc(-c2cccc(O)c2)cc1 : 65.4

// recorded viability, T/C for CC1COCCN1c1cc(C2(S(C)(=N)=O)CC2)nc(-c2ccnc3[nH]ccc23)n1 (stereo not given) + NC1CCC(NC2CC2c2ccccc2)CC1 : 68.6

// recorded viability, T/C for O=C(c1cc(Cc2n[nH]c(=O)c3ccccc23)ccc1F)N1CCN(C(=O)C2CC2)CC1 + NC1CC1c1ccc(-c2cccc(O)c2)cc1 : 96.7

// recorded viability, T/C for O=C(c1cc(Cc2n[nH]c(=O)c3ccccc23)ccc1F)N1CCN(C(=O)C2CC2)CC1 + NC1CCC(NC2CC2c2ccccc2)CC1 : 104

// recorded viability, T/C for CC1(C)CCC(CN2CCN(c3ccc(C(=O)NS(=O)(=O)c4ccc(NCC5CCOCC5)c([N+](=O)[O-])c4)c(Oc4cnc5[nH]ccc5c4)c3)CC2)=C(c2ccc(Cl)cc2)C1 + NC1CCC(NC2CC2c2ccccc2)CC1 : 96.3

// recorded viability, T/C for COc1ccc([C@@H](O)c2cc(-c3ncnc4cc(N5CCOCC5)ccc34)c(F)cc2Cl)nn1 + NC1CCC(NC2CC2c2ccccc2)CC1 : 50

// recorded viability, T/C for CC1(C)CCC(CN2CCN(c3ccc(C(=O)NS(=O)(=O)c4ccc(NCC5CCOCC5)c([N+](=O)[O-])c4)c(Oc4cnc5[nH]ccc5c4)c3)CC2)=C(c2ccc(Cl)cc2)C1 + NC1CC1c1ccc(-c2cccc(O)c2)cc1 : 98.6

// recorded viability, T/C for COc1ccc([C@@H](O)c2cc(-c3ncnc4cc(N5CCOCC5)ccc34)c(F)cc2Cl)nn1 + NC1CC1c1ccc(-c2cccc(O)c2)cc1 : 50.5

----------
System: NCI/ADR-RES complex spheroid viability
Test protocol: Anticancer human tumor NCI/ADR-RES cell line growth inhibition;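 note: spheroids exposed to compounds for 7 days; 100% = DMSO vehicle treated spheroids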
Condition notes: second compound 10 µM; first compound 0.00949 µM; active compounds read low
Provide the recorded viability, T/C for the entries that follow.

Assay NCI/ADR-RES complex spheroid viability, sample CCN(c1cc(-c2ccc(CN3CCOCC3)cc2)cc(C(=O)NCc2c(C)cc(C)[nH]c2=O)c1C)C1CCOCC1 + NC1CCC(NC2CC2c2ccccc2)CC1 , viability, T/C read: 91.9%

Assay NCI/ADR-RES complex spheroid viability, sample COc1cc(C2c3cc4c(cc3C(OC3OC5COC(C)OC5C(O)C3O)C3COC(=O)C23)OCO4)cc(OC)c1O (stereo unspecified) + NC1CCC(NC2CC2c2ccccc2)CC1 , viability, T/C read: 93%

Assay NCI/ADR-RES complex spheroid viability, sample COc1cc(C2c3cc4c(cc3C(OC3OC5COC(C)OC5C(O)C3O)C3COC(=O)C23)OCO4)cc(OC)c1O (stereo unspecified) + NC1CC1c1ccc(-c2cccc(O)c2)cc1 , viability, T/C read: 84.6%

Assay NCI/ADR-RES complex spheroid viability, sample NS(=O)(=O)OCC1CC(n2ccc3c(NC4CCc5ccccc54)ncnc32)CC1O (stereo unspecified) + NC1CC1c1ccc(-c2cccc(O)c2)cc1 , viability, T/C read: 92%

Assay NCI/ADR-RES complex spheroid viability, sample Nc1ncn(C2CC(O)C(CO)S2)c(=O)n1 (stereo unspecified) + NC1CC1c1ccc(-c2cccc(O)c2)cc1 , viability, T/C read: 38.6%

Assay NCI/ADR-RES complex spheroid viability, sample Nc1ccccc1NC(=O)c1ccc(CNC(=O)OCc2cccnc2)cc1 + NC1CCC(NC2CC2c2ccccc2)CC1 , viability, T/C read: 95.1%

Assay NCI/ADR-RES complex spheroid viability, sample Nc1ccn(C2OC(CO)C(O)C2(F)F)c(=O)n1 (stereo unspecified) + NC1CCC(NC2CC2c2ccccc2)CC1 , viability, T/C read: 2.05%

Assay NCI/ADR-RES complex spheroid viability, sample Nc1ccn(C2OC(CO)C(O)C2(F)F)c(=O)n1 (stereo unspecified) + NC1CC1c1ccc(-c2cccc(O)c2)cc1 , viability, T/C read: 3.02%

Assay NCI/ADR-RES complex spheroid viability, sample Nc1ncn(C2CC(O)C(CO)S2)c(=O)n1 (stereo unspecified) + NC1CCC(NC2CC2c2ccccc2)CC1 , viability, T/C read: 43.7%

Assay NCI/ADR-RES complex spheroid viability, sample O=C(C=Cc1cccc(S(=O)(=O)Nc2ccccc2)c1)NO + NC1CC1c1ccc(-c2cccc(O)c2)cc1 , viability, T/C read: 102%

Assay NCI/ADR-RES complex spheroid viability, sample O=C(C=Cc1cccc(S(=O)(=O)Nc2ccccc2)c1)NO + NC1CCC(NC2CC2c2ccccc2)CC1 , viability, T/C read: 75.2%

Assay NCI/ADR-RES complex spheroid viability, sample CCN(c1cc(-c2ccc(CN3CCOCC3)cc2)cc(C(=O)NCc2c(C)cc(C)[nH]c2=O)c1C)C1CCOCC1 + NC1CC1c1ccc(-c2cccc(O)c2)cc1 , viability, T/C read: 92.6%

Assay NCI/ADR-RES complex spheroid viability, sample Nc1ccccc1NC(=O)c1ccc(CNC(=O)OCc2cccnc2)cc1 + NC1CC1c1ccc(-c2cccc(O)c2)cc1 , viability, T/C read: 83.4%

Assay NCI/ADR-RES complex spheroid viability, sample CCc1c2c(nc3ccc(O)cc13)-c1cc3c(c(=O)n1C2)COC(=O)[C@]3(O)CC + NC1CCC(NC2CC2c2ccccc2)CC1 , viability, T/C read: 0.71%

Assay NCI/ADR-RES complex spheroid viability, sample NS(=O)(=O)OCC1CC(n2ccc3c(NC4CCc5ccccc54)ncnc32)CC1O (stereo unspecified) + NC1CCC(NC2CC2c2ccccc2)CC1 , viability, T/C read: 87.3%

Assay NCI/ADR-RES complex spheroid viability, sample CCc1c2c(nc3ccc(O)cc13)-c1cc3c(c(=O)n1C2)COC(=O)[C@]3(O)CC + NC1CC1c1ccc(-c2cccc(O)c2)cc1 , viability, T/C read: 1.58%

----------
Provide the recorded viability, T/C for the entries that follow.
Test system: NCI/ADR-RES complex spheroid viability
Test protocol: Anticancer human tumor NCI/ADR-RES cell line growth inhibition;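 note: spheroids exposed to compounds for 7 days; 100% = DMSO vehicle treated spheroids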
Condition notes: second compound 10 µM; first compound 0.01 µM; active compounds read low

// recorded viability, T/C for CC1COCCN1c1cc(-c2ccnn2C)c2ccnc(-c3ccn[nH]3)c2n1 (stereo not given) + NC1CCC(NC2CC2c2ccccc2)CC1 : 38.2%

// recorded viability, T/C for Cn1ncnc1C1c2n[nH]c(=O)c3cc(F)cc(c23)NC1c1ccc(F)cc1 (stereo not given) + NC1CC1c1ccc(-c2cccc(O)c2)cc1 : 96.8%

// recorded viability, T/C for O=C(C=Cn1cnc(-c2cc(C(F)(F)F)cc(C(F)(F)F)c2)n1)NNc1cnccn1 + NC1CC1c1ccc(-c2cccc(O)c2)cc1 : 22.1%

// recorded viability, T/C for CC1COCCN1c1cc(-c2ccnn2C)c2ccnc(-c3ccn[nH]3)c2n1 (stereo not given) + NC1CC1c1ccc(-c2cccc(O)c2)cc1 : 58.6%

// recorded viability, T/C for COc1cc(Nc2ncc3c(n2)-c2ccc(Cl)cc2C(c2c(F)cccc2OC)=NC3)ccc1C(=O)O + NC1CC1c1ccc(-c2cccc(O)c2)cc1 : 57.8%

----------
Provide the recorded viability, T/C for the entries that follow.
System: NCI/ADR-RES complex spheroid viability
Test protocol: Anticancer human tumor NCI/ADR-RES cell line growth inhibition;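 note: spheroids exposed to compounds for 7 days; 100% = DMSO vehicle treated spheroids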
Condition notes: second compound 0.316 µM; first compound 0.0316 µM; active compounds read low
# unit: % | format: bare number

Assay NCI/ADR-RES complex spheroid viability, sample O=C(c1cc(Cc2n[nH]c(=O)c3ccccc23)ccc1F)N1CCN(C(=O)C2CC2)CC1 + NC1CC1c1ccc(-c2cccc(O)c2)cc1 , viability, T/C read: 111

Assay NCI/ADR-RES complex spheroid viability, sample CC(C)c1c(-c2ccccc2)nc2c(C#N)c[nH]n2c1=O + NC1CC1c1ccc(-c2cccc(O)c2)cc1 , viability, T/C read: 113

Assay NCI/ADR-RES complex spheroid viability, sample CC(C)c1c(-c2ccccc2)nc2c(C#N)c[nH]n2c1=O + NC1CCC(NC2CC2c2ccccc2)CC1 , viability, T/C read: 102

Assay NCI/ADR-RES complex spheroid viability, sample CC(C)CC(NC(=O)CNC(=O)c1cc(Cl)ccc1Cl)B1OC(=O)CC(CC(=O)O)(C(=O)O)O1 (configuration not stated) + NC1CC1c1ccc(-c2cccc(O)c2)cc1 , viability, T/C read: 39.8

Assay NCI/ADR-RES complex spheroid viability, sample CC1(C)CCC(CN2CCN(c3ccc(C(=O)NS(=O)(=O)c4ccc(NCC5CCOCC5)c([N+](=O)[O-])c4)c(Oc4cnc5[nH]ccc5c4)c3)CC2)=C(c2ccc(Cl)cc2)C1 + NC1CCC(NC2CC2c2ccccc2)CC1 , viability, T/C read: 91.8

Assay NCI/ADR-RES complex spheroid viability, sample COc1cc(Nc2ncc3c(n2)-c2ccc(Cl)cc2C(c2c(F)cccc2OC)=NC3)ccc1C(=O)O + NC1CC1c1ccc(-c2cccc(O)c2)cc1 , viability, T/C read: 36.7

Assay NCI/ADR-RES complex spheroid viability, sample Cn1ncnc1C1c2n[nH]c(=O)c3cc(F)cc(c23)NC1c1ccc(F)cc1 (configuration not stated) + NC1CC1c1ccc(-c2cccc(O)c2)cc1 , viability, T/C read: 110

Assay NCI/ADR-RES complex spheroid viability, sample O=C(c1cc(Cc2n[nH]c(=O)c3ccccc23)ccc1F)N1CCN(C(=O)C2CC2)CC1 + NC1CCC(NC2CC2c2ccccc2)CC1 , viability, T/C read: 109

Assay NCI/ADR-RES complex spheroid viability, sample CC[C@@]1(O)C(=O)OCc2c1cc1n(c2=O)Cc2cc3c(CN(C)C)c(O)ccc3nc2-1 + NC1CCC(NC2CC2c2ccccc2)CC1 , viability, T/C read: 10.8

Assay NCI/ADR-RES complex spheroid viability, sample CC[C@@]1(O)C(=O)OCc2c1cc1n(c2=O)Cc2cc3c(CN(C)C)c(O)ccc3nc2-1 + NC1CC1c1ccc(-c2cccc(O)c2)cc1 , viability, T/C read: 14.9

Assay NCI/ADR-RES complex spheroid viability, sample CC1COCCN1c1cc(C2(S(C)(=N)=O)CC2)nc(-c2ccnc3[nH]ccc23)n1 (configuration not stated) + NC1CC1c1ccc(-c2cccc(O)c2)cc1 , viability, T/C read: 110

Assay NCI/ADR-RES complex spheroid viability, sample Nc1ncn(C2CC(O)C(CO)O2)c(=O)n1 (configuration not stated) + NC1CC1c1ccc(-c2cccc(O)c2)cc1 , viability, T/C read: 62

Assay NCI/ADR-RES complex spheroid viability, sample O=C(C=Cn1cnc(-c2cc(C(F)(F)F)cc(C(F)(F)F)c2)n1)NNc1cnccn1 + NC1CCC(NC2CC2c2ccccc2)CC1 , viability, T/C read: 18.8

Assay NCI/ADR-RES complex spheroid viability, sample CC(C)CC(NC(=O)C(Cc1ccccc1)NC(=O)c1cnccn1)B(O)O (configuration not stated) + NC1CCC(NC2CC2c2ccccc2)CC1 , viability, T/C read: 9.17

Assay NCI/ADR-RES complex spheroid viability, sample CC1(C)CCC(CN2CCN(c3ccc(C(=O)NS(=O)(=O)c4ccc(NCC5CCOCC5)c([N+](=O)[O-])c4)c(Oc4cnc5[nH]ccc5c4)c3)CC2)=C(c2ccc(Cl)cc2)C1 + NC1CC1c1ccc(-c2cccc(O)c2)cc1 , viability, T/C read: 110

Assay NCI/ADR-RES complex spheroid viability, sample Cn1ncnc1C1c2n[nH]c(=O)c3cc(F)cc(c23)NC1c1ccc(F)cc1 (configuration not stated) + NC1CCC(NC2CC2c2ccccc2)CC1 , viability, T/C read: 104

Assay NCI/ADR-RES complex spheroid viability, sample COc1ccc([C@@H](O)c2cc(-c3ncnc4cc(N5CCOCC5)ccc34)c(F)cc2Cl)nn1 + NC1CC1c1ccc(-c2cccc(O)c2)cc1 , viability, T/C read: 106

Assay NCI/ADR-RES complex spheroid viability, sample O=C(C=Cn1cnc(-c2cc(C(F)(F)F)cc(C(F)(F)F)c2)n1)NNc1cnccn1 + NC1CC1c1ccc(-c2cccc(O)c2)cc1 , viability, T/C read: 12.6

Assay NCI/ADR-RES complex spheroid viability, sample CC(C)CC(NC(=O)C(Cc1ccccc1)NC(=O)c1cnccn1)B(O)O (configuration not stated) + NC1CC1c1ccc(-c2cccc(O)c2)cc1 , viability, T/C read: 6.88

Assay NCI/ADR-RES complex spheroid viability, sample CC1COCCN1c1cc(C2(S(C)(=N)=O)CC2)nc(-c2ccnc3[nH]ccc23)n1 (configuration not stated) + NC1CCC(NC2CC2c2ccccc2)CC1 , viability, T/C read: 101

Assay NCI/ADR-RES complex spheroid viability, sample CC1COCCN1c1cc(-c2ccnn2C)c2ccnc(-c3ccn[nH]3)c2n1 (configuration not stated) + NC1CCC(NC2CC2c2ccccc2)CC1 , viability, T/C read: 16.8

Assay NCI/ADR-RES complex spheroid viability, sample Nc1ncn(C2CC(O)C(CO)O2)c(=O)n1 (configuration not stated) + NC1CCC(NC2CC2c2ccccc2)CC1 , viability, T/C read: 78.3

Source of measurements: PubChem BioAssay AID1918955
